# System: K562
# experiment-notes: Cytotoxicity against human K562 cells by MTT assay
# Format: functional
# test-settings: read-out: LC50 (the source's name)
In this section we review reported CC50 values for a set of compounds.
Give the value in nM but do not write nM after it.

>>> data_value("CC(=O)O[C@@H](C=O)[C@]1(C)CC[C@H](C(C)C)[C@@H]1c1cc([C@]2(O)Cc3cc(O)c(=O)c(C)c4c3[C@@H](O2)[C@H](O)[C@]2(C)CC[C@H](C(C)C)[C@H]42)cc(O)c(=O)c1C")
260
>>> data_value("COc1cccc2c1C(=O)c1c(O)c3c(c(O)c1C2=O)C[C@@](O)(C(=O)CO)C[C@@H]3O[C@H]1C[C@H](N)[C@H](O)[C@H](C)O1")
700

Can you look up the measured CC50 of CC(=O)N[C@H](O)[C@H](O)[C@]1(C)CC[C@H](C(C)C)[C@@H]1c1cc([C@]2(O)Cc3cc(O)c(=O)c(C)c4c3[C@@H](O2)[C@H](O)[C@]2(C)CC[C@H](C(C)C)[C@H]42)cc(O)c(=O)c1C for me?
440

* * *

# experiment-notes: Inhibition of isocitrate lyase (unknown origin)
pIC50: −log10 of the molar value.
value-kind: pIC50

Answered cases to consult:
>>> data_value("CO[C@@H](NC(C)=O)[C@H](O)[C@]1(C)CC[C@H](C(C)C)[C@@H]1c1cc([C@]2(O)Cc3cc(O)c(=O)c(C)c4c3[C@@H](O2)[C@H](O)[C@]2(C)CC[C@H](C(C)C)[C@H]42)cc(O)c(=O)c1C")
"< 4.00"
>>> data_value("CC(=O)O[C@@H](C=O)[C@]1(C)CC[C@H](C(C)C)[C@@H]1c1cc(/C(O)=C/c2cc(O)c(=O)c(C)c3c2[C@@H](O)[C@H](O)[C@]2(C)CC[C@H](C(C)C)[C@H]32)cc(O)c(=O)c1C")
"< 4.00"
>>> data_value("Cc1c([C@H]2[C@@H](C(C)C)CC[C@@]2(C)C(=O)CNCCS(=O)(=O)O)cc([C@]2(O)Cc3cc(O)c(=O)c(C)c4c3[C@@H](O2)[C@H](O)[C@]2(C)CC[C@H](C(C)C)[C@H]42)cc(O)c1=O")
"< 4.00"
>>> data_value("CC(=O)O[C@@H](C=O)[C@]1(C)CC[C@H](C(C)C)[C@@H]1c1cc([C@]2(O)Cc3cc(O)c(=O)c(C)c4c3[C@@H](O2)[C@H](O)[C@]2(C)CC[C@H](C(C)C)[C@H]42)cc(O)c(=O)c1C")
"< 4.00"

# input for lookup
Can you look up the measured pIC50 of CC(=O)N[C@H](O)[C@H](O)[C@]1(C)CC[C@H](C(C)C)[C@@H]1c1cc([C@]2(O)Cc3cc(O)c(=O)c(C)c4c3[C@@H](O2)[C@H](O)[C@]2(C)CC[C@H](C(C)C)[C@H]42)cc(O)c(=O)c1C for me?
< 4.00
